# IC50 per entry
target: HIS-TGFβR1 T204D (Homo sapiens, UniProt P36897, T204D); assay: HTRF probe-displacement assay, HIS-TGFβR1 T204D; type: binding; settings: read-out: TGFβR1 (μM) IC50
Your answer should be a plain number; it is taken to be in µM.

• CC(=O)Nc1cc(-c2[nH]c3cccnc3c2-c2ccc3ncccc3c2)ccn1 = 0.039
• O=C(CN1CCN(CCO)CC1)Nc1cc(-c2[nH]c3cc(Cl)cnc3c2-c2ccc(F)cn2)ccn1 = 0.001
• CC(=O)Nc1cc(-c2[nH]c3c(C(C)F)ccnc3c2-c2cccc(C(F)F)n2)ccn1 (centres unmarked) = 0.0014

Give its IC50 value. Item: CCNc1cc(-c2[nH]c3cc(Cl)cnc3c2-c2ccc(OC)cn2)ccn1
0.033

What do you have for CCCc1ccnc2c(-c3cccc(C(F)F)n3)c(-c3ccnc(NC(C)=O)c3)[nH]c12 ?
0.001

Would you mind doing CC(=O)Nc1cc(-c2[nH]c3cccnc3c2-c2ccc(Cl)c(C)n2)ccn1 as well?
0.005

How about CC(=O)Nc1cc(-c2[nH]c3cccnc3c2-c2cccc(Cl)n2)ccn1 ?
0.001

Next record, please: CC(=O)Nc1cc(-c2[nH]c3cc(Cl)cnc3c2-c2ncc(Cl)s2)ccn1
0.0138

* * *

molecular target: HIS-TGFβR1 T204D (Homo sapiens, UniProt P36897, T204D); experiment: HTRF probe-displacement assay, HIS-TGFβR1 T204D; assay type: binding; settings: read-out: TGFβR1 (μM) IC50
log10 of IC50 values by entry
For clarity, the numbers are log10 values of IC50 expressed in µM.

Below, 6 molecules whose answers are already recorded.
- CC(=O)Nc1cc(-c2[nH]c3c(C(=O)NC(CO)CO)cc(Cl)nc3c2-c2cccnc2)ccn1: -0.49
- COc1cnc2c(-c3ccc(F)c(C)n3)c(-c3ccnc(NC(C)=O)c3)[nH]c2c1: -2.70
- COCCCc1ccnc2c(-c3cccc(C(F)F)n3)c(-c3ccnc(NC(C)=O)c3)[nH]c12: -3.00
- COc1ccc(-c2c(-c3ccnc(NC(C)=O)c3)[nH]c3ccc(F)nc23)nc1: -2.70
- COc1ccc(-c2c(-c3ccnc(NC(C)=O)c3)[nH]c3ccc(OC)nc23)cn1: -1.80
- CC(=O)Nc1cc(-c2[nH]c3cccnc3c2-c2cccc(F)n2)ccn1: -2.70

Please provide the recorded log10 of IC50 for CC(=O)Nc1cc(-c2[nH]c3c(CO)ccnc3c2-c2ccc(F)nc2)ccn1 , tested on HIS-TGFβR1 T204D (Homo sapiens, UniProt P36897, T204D).
-2.22

Subsequent entry: CN(C)C1CCN(CC(=O)Nc2cc(-c3[nH]c4cc(Cl)cnc4c3-c3ccc(F)cn3)ccn2)CC1
-2.70

* * *

target: HIS-TGFβR2 WT (Homo sapiens); test: HTRF probe-displacement assay, HIS-TGFβR2 WT; type: binding
Label T when IC50 < 0.6 µM; otherwise F.

A selection of reference data follows.
- CC(=O)Nc1cc(-c2[nH]c3c(CN(C)C)ccnc3c2-c2cccc(C(F)F)n2)ccn1: F
- COC(=O)Nc1cc(-c2[nH]c3cc(Cl)cnc3c2-c2ccc(F)cn2)ccn1: F
- COc1ccc(-c2c(-c3ccnc(NC(C)=O)c3)[nH]c3cc(OC4COC4)cnc23)nc1: F
- COc1cnc2c(-c3cccc(C)n3)c(-c3ccnc(NC(=O)CN4CCN(CCO)CC4)c3)[nH]c2c1: F
- COc1ccc(-c2c(-c3ccnc(NC(C)=O)c3)[nH]c3c(C(C)=O)ccnc23)cn1: T

Is 0.6 µM strictly greater than the molecule's reported IC50? molecule: CC(=O)Nc1cc(-c2[nH]c3c(Cl)ccnc3c2-c2ccc(F)cn2)ccn1
F

Another: COc1ccnc2c(-c3nc(C)cs3)c(-c3ccnc(NC(C)=O)c3)[nH]c12
T

How about this molecule: COc1ccc2[nH]c(-c3ccnc(NC(C)=O)c3)c(-c3cccc(Cl)n3)c2n1
F

* * *

molecular target: HIS-TGFβR2 WT (Homo sapiens); assay: HTRF probe-displacement assay, HIS-TGFβR2 WT; assay type: binding
Please assign class 0 whenever IC50 is at or above 2 µM, and class 1 whenever it is below.

- CC(=O)Nc1cc(-c2[nH]c3c(Cl)ccnc3c2-c2cccc(F)n2)ccn1 [Example 64]: class 1
- COc1ccnc2c(-c3ccc(F)cn3)c(-c3ccnc(NC(C)=O)c3)[nH]c12 [Example 268]: class 0
- CC(=O)Nc1cc(-c2[nH]c3c(C4CCN(C)CC4)ccnc3c2-c2cccc(C(F)F)n2)ccn1 [Example 137]: class 0
- CC(=O)Nc1cc(-c2[nH]c3c(CO)ccnc3c2-c2ccc(C)nc2)ccn1 [Example 280]: class 0
- CC(=O)Nc1cc(-c2[nH]c3c(C4CCOCC4)ccnc3c2-c2cccc(C)n2)ccn1 [Example 136]: class 0
- CNC(=O)c1ccnc2c(-c3ccc(OC)nc3)c(-c3ccnc(NC(C)=O)c3)[nH]c12 [Example 57]: class 1

Regarding CC(=O)Nc1cc(-c2[nH]c3cc(Cl)cnc3c2-c2cccc(C(F)F)n2)ccn1 [Example 171] , kindly confirm whether its IC50 is beneath 2 µM.
class 0

Same read-out for COc1ccc(-c2c(-c3ccnc(NC(=O)CN4CCOCC4)c3)[nH]c3cccnc23)cn1 [Example 286] ?
class 1

Can you handle COc1ccc(-c2c(-c3ccnc(NC(C)=O)c3)[nH]c3c(OC)ccnc23)nc1 [Example 266] next?
class 0

How about COc1ccc(-c2c(-c3ccnc(NC(C)=O)c3)[nH]c3cc(C)cnc23)nc1 [Example 184] ?
class 0

Same for CC(=O)Nc1cc(-c2[nH]c3c(C)ccnc3c2-c2csc(C)n2)ccn1 [Example 221]
class 1

// query: COc1ccc(-c2c(-c3ccnc(NC(=O)CN4CCN(C)CC4)c3)[nH]c3cc(Cl)cnc23)cn1 [Example 292]
class 1

Field entry: CC(=O)Nc1cc(-c2[nH]c3c(C(C)O)ccnc3c2-c2nc(C)cs2)ccn1 (stereo not shown) [Example 232]
class 1

Follow-up entry: COc1cnc2c(-c3ccc(OC)nc3)c(-c3ccnc(NC(C)=O)c3)[nH]c2c1 [Example 285]
class 1

Okay, and COc1ccc(-c2c(-c3ccnc(NC(=O)CN4CCN(CCO)CC4)c3)[nH]c3cc(Cl)cnc23)cn1 [Example 235] ?
class 1

Entry COc1cnc2c(-c3ccc(C(F)F)cn3)c(-c3ccnc(NC(C)=O)c3)[nH]c2c1 [Example 110] please
class 0

* * *

target: HIS-TGFβR1 T204D (Homo sapiens, UniProt P36897, T204D); experiment: HTRF probe-displacement assay, HIS-TGFβR1 T204D; assay type: binding; settings: read-out: TGFβR1 (μM) IC50
Binary call on IC50 with cut-off 0.004 µM: strictly below means y, and equality or higher means n.

Study these solved cases before continuing.
* CC(=O)Nc1cc(-c2[nH]c3cc(Cl)cnc3c2-c2ncc(C)s2)ccn1 | y
* COc1ccc(-c2c(-c3ccnc(NC(=O)CN4CCN(C)CC4)c3)[nH]c3cc(Cl)cnc23)nc1 | n
* CC(=O)Nc1cc(-c2[nH]c3cccnc3c2-c2cc(C)c(F)cn2)ccn1 | n
* CC(=O)Nc1cc(-c2[nH]c3cc(Cl)cnc3c2-c2ccc(Cl)cn2)ccn1 | n

Then this compound:
Regarding COc1ccc(-c2c(-c3ccnc(NCC(C)C)c3)[nH]c3cc(Cl)cnc23)nc1 , kindly confirm whether its IC50 is beneath 0.004 µM.
n

* * *

target: HIS-TGFβR2 WT (Homo sapiens, UniProt P37173); assay: HTRF probe-displacement assay, HIS-TGFβR2 WT; assay type: binding
Sequence (P37173 23-567): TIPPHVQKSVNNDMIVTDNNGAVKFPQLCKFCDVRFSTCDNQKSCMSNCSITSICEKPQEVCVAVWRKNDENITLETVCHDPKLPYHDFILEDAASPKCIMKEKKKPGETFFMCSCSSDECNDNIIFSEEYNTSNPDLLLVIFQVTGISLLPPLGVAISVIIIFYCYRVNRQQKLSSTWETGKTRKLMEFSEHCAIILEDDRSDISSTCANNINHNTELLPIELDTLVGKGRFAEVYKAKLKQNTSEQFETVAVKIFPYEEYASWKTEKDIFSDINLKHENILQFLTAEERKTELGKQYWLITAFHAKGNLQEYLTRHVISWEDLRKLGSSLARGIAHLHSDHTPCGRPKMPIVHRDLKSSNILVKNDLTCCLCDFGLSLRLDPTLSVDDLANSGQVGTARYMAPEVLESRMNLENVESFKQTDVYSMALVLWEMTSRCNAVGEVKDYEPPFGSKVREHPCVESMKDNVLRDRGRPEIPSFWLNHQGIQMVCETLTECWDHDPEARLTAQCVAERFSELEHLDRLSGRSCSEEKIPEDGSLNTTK
Quantity name: IC50

• CCc1ccnc(-c2c(-c3ccnc(NC(C)=O)c3)[nH]c3cccnc23)c1 = > 15 µM
• COc1cnc(-c2c(-c3ccnc(NC(C)=O)c3)[nH]c3cccnc23)cn1 = 4.31 µM
• CC(=O)Nc1cc(-c2[nH]c3cc(Cl)cnc3c2-c2ncc(Cl)s2)ccn1 = 1.19 µM
• CC(=O)Nc1cc(-c2[nH]c3cc(Cl)cnc3c2-c2cccc(F)n2)ccn1 = 0.11 µM
• COc1cc(-c2c(-c3ccnc(NC(C)=O)c3)[nH]c3cccnc23)ccn1 = 1.21 µM
• COc1ccc(-c2c(-c3ccnc(NC(C)=O)c3)[nH]c3cc(N4CCC(OC)CC4)cnc23)nc1 = > 15 µM

Recorded IC50 of CC(=O)Nc1cc(-c2[nH]c3c(C4CCN(C)CC4)ccnc3c2-c2cccc(C)n2)ccn1 , please.
> 15 µM

Do the same for COc1ccc(-c2c(-c3ccnc(NC(C)=O)c3)[nH]c3cc(C(O)C(F)(F)C(N)=O)cnc23)nc1 (centres unmarked) please
> 15 µM

* * *

Target: HIS-TGFβR1 T204D (Homo sapiens, UniProt P36897, T204D)
Sequence (P36897 34-503 T204D): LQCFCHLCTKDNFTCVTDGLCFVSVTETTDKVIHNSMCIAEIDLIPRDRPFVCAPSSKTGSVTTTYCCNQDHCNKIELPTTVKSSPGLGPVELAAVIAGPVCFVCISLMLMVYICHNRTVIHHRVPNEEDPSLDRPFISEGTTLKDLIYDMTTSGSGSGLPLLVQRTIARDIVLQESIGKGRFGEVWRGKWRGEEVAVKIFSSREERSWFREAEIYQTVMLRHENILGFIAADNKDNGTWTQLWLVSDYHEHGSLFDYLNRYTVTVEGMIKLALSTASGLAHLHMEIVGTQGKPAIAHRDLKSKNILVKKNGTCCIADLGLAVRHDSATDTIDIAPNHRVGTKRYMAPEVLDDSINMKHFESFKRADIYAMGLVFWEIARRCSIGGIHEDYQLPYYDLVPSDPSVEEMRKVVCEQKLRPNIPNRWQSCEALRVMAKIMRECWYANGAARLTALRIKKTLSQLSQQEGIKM
Assay: HTRF probe-displacement assay, HIS-TGFβR1 T204D
Format: binding
Details: read-out: TGFβR1 (μM) IC50
Quantity name: log10 of IC50 (log10 of the value in µM)
Field: value | Transform: log10 | Quantity: IC50 | Unit: µM

What log10 of IC50 value was documented for this molecule, CC(=O)Nc1cc(-c2[nH]c3cccnc3c2-c2ccc(C(F)F)cn2)ccn1 [Example 108] ?
-0.84

Another: CC(=O)Nc1cc(-c2[nH]c3cc(Cl)cnc3c2-c2ccc(OC(C)C)cn2)ccn1 [Example 254]
-1.19

Continue with COc1cnc(-c2c(-c3ccnc(NC(C)=O)c3)[nH]c3cc(Cl)cnc23)s1 [Example 239]
-1.13

Values compiled from patent US9708316B2.
